Each entry below carries its recorded growth inhibition.
test: NCI Yeast Anticancer Drug Screen. Data for the bub3 strain (AID 167)
conditions-used: S. cerevisiae bub3 mutant strain, at 50.0 µM (retest, dose inferred, filed as 5.0), active compounds read high
Compounds without any hit were thinned out: in the full panel of roughly 79,000, 15% have a hit. Active and inactive are the calls of the source. No stated cut-off is given here; in the data, active means growth inhibition above about 70%; inactive means the rest.
value-kind: growth inhibition

{"columns": ["compound", "obs-value"],
 "data": [
  ["O=C1C=CC(=O)N1c1ccc(N2C(=O)C=CC2=O)cc1", "99% (active)"],
  ["CCCCCCCCCCCc1nc(N)n[nH]1", "88% (active)"],
  ["O=C(/C=C\\c1ccc([N+](=O)[O-])o1)Nc1ccc(Cl)cc1", "42% (inactive)"],
  ["CC(=O)c1cc2c(Cl)cc(Cl)cc2oc1=O", "46% (inactive)"],
  ["COc1ccc(SCc2cc(OC)ccc2OC)cc1", "73% (active)"],
  ["OCCN(CCO)c1ccc2c(c1)Cc1ccccc1-2", "27% (inactive)"],
  ["O=C(NCCCCCN1CCC2(CCCCC2)CC1)C(C1CCCCC1)C1CCCCC1", "100% (active)"],
  ["CC(C)(C)c1ccc(O)c(C(c2ccc([N+](=O)[O-])cc2)c2cc(C(C)(C)C)ccc2O)c1", "94% (active)"],
  ["COc1cc(CNc2ccc(C(C)C)cc2)cc(OC)c1OC", "78% (active)"],
  ["C=C(C)[C@@H]1CCc2c(O)c(O)c(=O)cc(C)c2C1", "96% (active)"],
  ["COC(=O)/C=C1/OC(c2ccc(Br)cc2)=C(Br)C1=O", "40% (inactive)"],
  ["COc1ccc(/C=C2\\SC(=S)N(C=C3C(=O)NC(=S)NC3=O)C2=O)cc1OC", "-1% (inactive)"],
  ["OCCNCCOc1ccc(/C(=C(/Cl)c2ccccc2)c2ccccc2)cc1", "99% (active)"],
  ["COC(=O)c1oc([N+](=O)[O-])c(Cl)c1Cl", "100% (active)"],
  ["Clc1c(Cl)c(Cl)c2n[nH]nc2c1Cl", "73% (active)"],
  ["Cc1ccc2c(ccc(/C=C/c3ccc(O)c4ncccc34)[n+]2C)c1", "98% (active)"],
  ["NNC(=S)Nc1cccc2ccccc12", "59% (inactive)"],
  ["Cc1cccc2c1N=C(C(F)(F)F)CC2=O", "33% (inactive)"],
  ["O=C1c2ccccc2CCC1(Br)Br", "99% (active)"],
  ["Nc1nc2c(c(=O)[nH]1)NC(CCNc1ccc(C(=O)O)cc1)CN2 (centres undefined)", "6% (inactive)"],
  ["O=C1C=CC(=O)N1c1ccc2c(c1)OCO2", "98% (active)"],
  ["CC(=O)C1=C(C)O/C(=C/c2cccc(Cl)c2)C1=O", "47% (inactive)"],
  ["Nc1cc(S(N)(=O)=O)ccc1SSc1ccc(S(N)(=O)=O)cc1N", "12% (inactive)"],
  ["O=[N+]([O-])c1cccc2nc3ccccc3c(NCCc3cccc[n+]3[O-])c12", "83% (active)"]
]}

---

test: NCI Yeast Anticancer Drug Screen. Data for the rad50 strain (AID 155);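 further: 0% = growth of vehicle-only cultures of the same strain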
conditions-used: S. cerevisiae rad50 strain growth inhibition; at 5.0 µM (retest, dose inferred, filed as 0.5)
Compounds without any hit were thinned out: in the full panel of roughly 79,000, 15% have a hit. Activity calls are given as the source filed them. No stated cut-off is given here; in the data, active means growth inhibition above about 70%; inactive means the rest.
Labels: active, inactive

{"columns": ["compound", "assigned-label"],
 "data": [
  ["Cc1c2cc[n+](CCN3CCCCC3)cc2c(C)c2c1[nH]c1ccc(O)cc12", "inactive"],
  ["COc1cc(N)ccc1Nc1c2ccccc2nc2ccccc12", "active"],
  ["CCC(NC(C)c1ccccc1)C(=O)c1ccc(OCc2ccccc2)c(OCc2ccccc2)c1 (stereo not given)", "inactive"],
  ["C/C(=N\\NC(=S)NNC(=S)N(C)c1ccccc1)c1ccccn1", "inactive"],
  ["N#CC(=S)Nc1cccc(Cl)c1", "inactive"],
  ["CN(C)c1ccc(N=Nc2ccccn2)cc1", "active"],
  ["Cc1cc(C)c(N2C(=O)CC(Sc3ccccc3N)C2=O)c(C)c1 (stereo not given)", "inactive"],
  ["CC(C)(C)[OH+][O-].[O-]c1ccc(Cl)cc1C=Nc1ccc(Cl)cc1[O-].[O]=[V]", "inactive"],
  ["CCCCC(=O)c1c(O)nc2sccn2c1=O", "inactive"],
  ["CC(C)(C)c1ccc(O)c(C(c2ccc([N+](=O)[O-])cc2)c2cc(C(C)(C)C)ccc2O)c1", "inactive"],
  ["CNc1nc(C)nc2c1cnn2-c1ccc([N+](=O)[O-])cc1", "inactive"],
  ["COc1cc2c(cc1C[N+](C)(C)CSc1ccccc1)-c1ccccc1CC2", "inactive"],
  ["O=C1OC2C(O)COC2(OCc2c[nH]c3ccccc23)C1O (stereo not given) (tested in a mixture with another compound)", "inactive"],
  ["COC(=O)CSc1nnc(CSc2ccc(Cl)cc2)n1-c1ccccc1", "inactive"],
  ["CCCCCCCCCCCCCC(=O)OC(C)CCC1CCCO1 (stereo not given)", "inactive"]
]}

Where do these numbers come from? They come from PubChem BioAssay (NCI).
